Where these numbers come from: patent US9808466B2

# Test Target: PIM-1 (Homo sapiens)
# Construct: histidine tag (C); made in house
# Method Summary: PIM-1 biochemical assay (ADP Hunter)
# Measurement Parameters: PIM1; read-out: PIM-1 activity, IC50 (semi-quantitative class)
pIC50: −log10 of the molar value.
Please go through the items and note down their pIC50.

Look over these answered cases.
In [3]: df
Out[3]:
                               smiles_entry  measurement_label     obs_value
0  CC(C)Oc1ncc2cc1NS(=O)(=O)c1cccc(c1)C(=O)NCCn1cc(cn1)-c1ncnc3c1SC2=C3              pIC50        < 6.00
1  COc1ncc2cc1NS(=O)(=O)c1cccc(c1)C(=O)NC[C@@H]1CCCN(C1)c1ncnc3c1SC2=C3              pIC50  6.00 to 7.00

Would you mind listing pIC50 for each of the following compounds?
1. COc1ncc2cc1NS(=O)(=O)c1cccc(c1)C(=O)Nc1cncc(c1)-c1ncnc3c1SC2=C3
2. COc1ncc2cc1NS(=O)(=O)c1cc(cc(C(F)(F)F)c1)C(=O)NCc1cncc(c1)-c1ncnc3c1SC2=C3
3. COc1ncc2cc1NS(=O)(=O)c1cccc(c1)C(=O)NCC1=CC=C(S1)c1ccnc3[nH]c-2cc13
4. O=C1NCc2cc(ccn2)-c2ncnc3c2SC(=C3)c2cncc(c2)NS(=O)(=O)c2cccc1c2
5. COc1ncc2cc1NS(=O)(=O)c1cccc(c1)C(=O)NCCN1CC=C(CC1)c1cnc3ccc-2nn13

Result string:
< 6.00
< 6.00
6.00 to 7.00
> 7.00
< 6.00

Would you mind listing pIC50 for each of the following compounds?
1. COc1ncc2cc1NS(=O)(=O)c1cccc(c1)C(=O)NCC1CCN(CC1)c1ncnc3cc-2sc13
2. O=C1NCc2cncc(c2)-c2ccnc3ccc(cc23)-c2cnc(O)c(c2)NS(=O)(=O)c2cccc1c2
3. COc1ncc2cc1NS(=O)(=O)c1cccc(c1)C(=O)NCc1cccc(c1)-c1ncnc3c1SC2=C3
4. COc1ncc2cc1NS(=O)(=O)c1cccc(c1)C(=O)NCC1CCN(CC1)c1ccnc3ccc-2cc13
5. COc1ncc2cc1NS(=O)(=O)c1cccc(c1)C(=O)NCc1cncc(c1)-c1cnc3sc-2nn13
6. COc1ncc2cc1NS(=O)(=O)c1cccc(c1)C(=O)NCc1cccc(c1)-c1ccnc3ccc-2cc13
7. COc1ncc2cc1NS(=O)(=O)c1cccc(c1)C(=O)NCCn1cc(cn1)-c1ncnc3c1SC2=C3
8. COc1ncc2cc1NS(=O)(=O)c1cccc(c1)C(=O)NCc1cc(F)cc(c1)-c1ncnc3c1SC2=C3

Result string:
1. < 6.00
2. < 6.00
3. 6.00 to 7.00
4. < 6.00
5. < 6.00
6. < 6.00
7. 6.00 to 7.00
8. 6.00 to 7.00

Would you mind listing pIC50 for each of the following compounds?
1. COc1ncc2cc1NS(=O)(=O)c1cccc(c1)C(=O)NCCN1CC=C(CC1)c1cnc3ccc-2cn13
2. COc1ncc2cc1NS(=O)(=O)c1cccc(c1)C(=O)NCc1cncc(c1)-c1cnc3ccc-2nn13
3. COc1ncc2cc1NS(=O)(=O)c1cccc(c1)C(=O)NCCCNc1ncnc3c1SC2=C3

Result string:
1. < 6.00
2. < 6.00
3. 6.00 to 7.00

Would you mind listing pIC50 for each of the following compounds?
1. COc1ncc2cc1NS(=O)(=O)c1ccc(F)c(c1)C(=O)NCc1cncc(c1)-c1ncnc3c1SC2=C3
2. COc1ncc2cc1NS(=O)(=O)c1cccc(c1)C(=O)NCc1ccc(F)c(c1)-c1ccnc3ccc-2cc13
3. COc1ncc2cc1NS(=O)(=O)c1cccc(c1)C(=O)NCc1cncc(c1)-c1nc(C)nc3c1SC2=C3
4. COc1ncc2cc1NS(=O)(=O)c1cccc(c1)C(=O)NCCCCNc1ccnc3ccc-2cc13
5. COc1ncc2cc1NS(=O)(=O)c1cccc(c1)C(=O)N1CCc3ccc(cc3C1)-c1ccnc3ccc-2cc13
6. COc1ncc2cc1NS(=O)(=O)c1cccc(c1)C(=O)NCCn1cc(cn1)-c1ncnc3ccc-2cc13
7. COc1ncc2cc1NS(=O)(=O)c1cccc(c1)C(=O)NCc1cccc(c1)-c1ncnc3ccc-2cc13

Result string:
1. > 7.00
2. < 6.00
3. < 6.00
4. < 6.00
5. < 6.00
6. < 6.00
7. < 6.00

----------
# Test Target: PIM-1 (Homo sapiens, UniProt P11309)
# Construct: histidine tag (C); made in house
# Sequence (P11309 whole entry): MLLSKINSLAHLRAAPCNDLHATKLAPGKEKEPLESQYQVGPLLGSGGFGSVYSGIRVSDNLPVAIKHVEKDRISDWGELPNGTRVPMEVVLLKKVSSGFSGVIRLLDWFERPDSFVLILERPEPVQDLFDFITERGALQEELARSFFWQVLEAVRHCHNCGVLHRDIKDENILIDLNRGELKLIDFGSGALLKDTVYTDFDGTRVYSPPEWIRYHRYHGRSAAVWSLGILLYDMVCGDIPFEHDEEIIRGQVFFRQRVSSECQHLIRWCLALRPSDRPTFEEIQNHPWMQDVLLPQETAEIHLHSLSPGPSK
# Method Summary: PIM-1 biochemical assay (ADP Hunter)
# Measurement Parameters: PIM1; read-out: PIM-1 activity, IC50 (semi-quantitative class)
pIC50: −log10 of the molar value.
Measurement Label: pIC50

>>> print(df.to_string())
                                   compound  measurement_label  obs_value
0  COc1ncc2cc1NS(=O)(=O)c1cccc(c1)C(=O)NCCn1cc(cn1)-c1nc(C(C)C)nc3c1SC2=C3 [compound 61]              pIC50     < 6.00
1  COc1ncc2cc1NS(=O)(=O)c1ccc(F)c(c1)C(=O)NCC1=CC=C(S1)c1ncnc3c1SC2=C3 [compound 82]              pIC50     > 7.00

Would you mind listing pIC50 for each of the following compounds?
1. COc1ncc2cc1NS(=O)(=O)c1cccc(c1)C(=O)NCc1cncc(c1)-c1cnn3ccc-2nc13 [compound 11]
2. COc1ncc2cc1NS(=O)(=O)c1cccc(c1)C(=O)N[C@H]1CCCN(C1)c1ncnc3c1SC2=C3 [compound 75]

Result string:
["< 6.00", "< 6.00"]

----------
# Test Target: PIM-1 (Homo sapiens)
# Construct: histidine tag (C); made in house
# Method Summary: PIM-1 biochemical assay (ADP Hunter)
# Measurement Parameters: PIM1; read-out: PIM-1 activity, IC50 (semi-quantitative class)
pIC50: −log10 of the molar value.
Measurement Label: pIC50

Would you mind listing pIC50 for each of the following molecules?
1. COc1ncc2cc1NS(=O)(=O)c1cccc(c1)C(=O)NCc1cncc(c1)-c1ccnc3c1SC2=C3
2. COc1ncc2cc1NS(=O)(=O)c1cccc(c1)C(=O)NCCn1cc(cn1)-c1ncnc3c1OC2=C3
3. COc1ncc2cc1NS(=O)(=O)c1cccc(c1)C(=O)NC[C@H]1CCCN(C1)c1ncnc3c1SC2=C3
4. COc1ncc2cc1NS(=O)(=O)c1cccc(c1)C(=O)NCc1cccc(c1)-c1cnc3sc-2nn13
5. COc1ncc2cc1NS(=O)(=O)c1cccc(c1)C(=O)NC[C@H]1CN(CCO1)c1ncnc3c1SC2=C3
6. COc1ncc2cc1NS(=O)(=O)c1cccc(c1)C(=O)NCc1cccc(c1)-c1cnn3ccc-2nc13
7. COc1ncc2cc1NS(=O)(=O)c1cccc(c1)C(=O)NCc1cccc(c1)-c1ccnc3ccc-2nc13
8. COc1ncc2cc1NS(=O)(=O)c1cccc(c1)C(=O)NC[C@@H]1CN(CCO1)c1ncnc3c1SC2=C3

Result string:
1: > 7.00; 2: < 6.00; 3: 6.00 to 7.00; 4: < 6.00; 5: 6.00 to 7.00; 6: < 6.00; 7: < 6.00; 8: > 7.00

----------
# Test Target: PI3K (p110α/p85α) (Homo sapiens, UniProt P42336)
# Construct: purchased Carna Biosciences 07CBS-0402A
# Sequence (P42336 whole entry): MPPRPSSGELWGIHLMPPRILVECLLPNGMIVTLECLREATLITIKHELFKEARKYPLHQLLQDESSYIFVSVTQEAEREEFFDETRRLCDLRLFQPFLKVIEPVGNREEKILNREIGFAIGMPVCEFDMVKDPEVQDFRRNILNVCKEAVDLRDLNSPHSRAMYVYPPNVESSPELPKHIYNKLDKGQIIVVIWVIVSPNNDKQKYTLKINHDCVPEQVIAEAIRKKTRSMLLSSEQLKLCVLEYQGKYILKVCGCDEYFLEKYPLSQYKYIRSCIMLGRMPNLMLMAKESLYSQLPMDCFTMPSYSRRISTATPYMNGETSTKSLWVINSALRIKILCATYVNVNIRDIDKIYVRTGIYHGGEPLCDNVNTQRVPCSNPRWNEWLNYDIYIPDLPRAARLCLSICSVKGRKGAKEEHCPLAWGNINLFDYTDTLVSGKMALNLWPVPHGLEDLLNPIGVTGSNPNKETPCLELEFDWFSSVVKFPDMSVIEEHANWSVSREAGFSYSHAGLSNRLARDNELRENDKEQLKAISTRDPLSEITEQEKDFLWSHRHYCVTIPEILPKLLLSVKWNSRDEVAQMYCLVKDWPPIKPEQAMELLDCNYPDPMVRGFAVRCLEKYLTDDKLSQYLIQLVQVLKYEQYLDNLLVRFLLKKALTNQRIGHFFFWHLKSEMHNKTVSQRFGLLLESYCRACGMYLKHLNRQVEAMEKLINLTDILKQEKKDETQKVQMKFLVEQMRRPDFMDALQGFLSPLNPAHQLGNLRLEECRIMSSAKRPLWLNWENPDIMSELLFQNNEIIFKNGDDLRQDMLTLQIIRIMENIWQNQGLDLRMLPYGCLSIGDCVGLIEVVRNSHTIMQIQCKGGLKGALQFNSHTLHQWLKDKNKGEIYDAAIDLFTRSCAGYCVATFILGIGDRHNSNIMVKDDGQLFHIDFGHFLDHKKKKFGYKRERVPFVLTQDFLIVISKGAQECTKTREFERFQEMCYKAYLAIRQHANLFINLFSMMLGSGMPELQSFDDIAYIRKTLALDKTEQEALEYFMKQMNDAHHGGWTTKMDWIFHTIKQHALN
# Sequence (P27986 whole entry partner): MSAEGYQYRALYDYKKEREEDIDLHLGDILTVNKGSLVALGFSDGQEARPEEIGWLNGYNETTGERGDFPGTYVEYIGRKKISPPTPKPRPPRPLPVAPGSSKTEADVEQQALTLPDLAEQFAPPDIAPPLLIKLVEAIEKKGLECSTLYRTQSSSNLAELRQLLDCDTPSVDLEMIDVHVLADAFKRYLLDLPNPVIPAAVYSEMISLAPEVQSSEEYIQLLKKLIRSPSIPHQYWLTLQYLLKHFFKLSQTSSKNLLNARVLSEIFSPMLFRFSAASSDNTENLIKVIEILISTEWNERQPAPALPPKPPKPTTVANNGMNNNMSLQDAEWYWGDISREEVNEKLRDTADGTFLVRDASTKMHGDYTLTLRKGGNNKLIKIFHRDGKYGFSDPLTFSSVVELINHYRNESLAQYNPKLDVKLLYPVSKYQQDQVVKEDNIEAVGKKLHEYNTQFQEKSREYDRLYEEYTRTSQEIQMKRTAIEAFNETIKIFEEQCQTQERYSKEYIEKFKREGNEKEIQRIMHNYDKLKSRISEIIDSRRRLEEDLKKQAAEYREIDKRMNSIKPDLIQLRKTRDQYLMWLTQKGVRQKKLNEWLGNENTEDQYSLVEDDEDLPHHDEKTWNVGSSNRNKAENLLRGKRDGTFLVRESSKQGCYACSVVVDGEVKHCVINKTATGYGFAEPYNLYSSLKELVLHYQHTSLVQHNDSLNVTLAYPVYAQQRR
# Method Summary: PI3K activity assay (ADP Hunter Plus)
# Type: biochemical
# Measurement Parameters: read-out: PI3K alpha activity, IC50 (semi-quantitative class)
Measurement Label: IC50

Look over these answered cases.
>>> print(df.to_string())
                               smiles_entry       obs_value
0  COc1ncc2cc1NS(=O)(=O)c1cccc(c1)C(=O)NCc1cncc(c1)-c1ncnc3c1SC2=C3C        < 100 nM
1  COc1ncc2cc1NS(=O)(=O)c1cccc(c1)C(=O)NC[C@H]1CN(CCO1)c1ncnc3c1SC2=C3       > 1000 nM
2  COc1ncc2cc1NS(=O)(=O)c1cccc(c1)C(=O)NCc1cccc(c1)-c1cnn3ccc-2nc13        < 100 nM
3  COc1ncc2cc1NS(=O)(=O)c1cccc(c1)C(=O)N[C@H]1CCCN(C1)c1ncnc3c1SC2=C3       > 1000 nM
4  COc1ncc2cc1NS(=O)(=O)c1cccc(c1)C(=O)NCC1=CC=C(O1)c1ncnc3c1SC2=C3  100 to 1000 nM

Would you mind listing IC50 for each of the following compounds?
1. COc1ncc2cc1NS(=O)(=O)c1cccc(c1)C(=O)NCc1cccc(c1)-c1cnc3sc-2nn13
2. COc1ncc2cc1NS(=O)(=O)c1cccc(c1)C(=O)NCCn1cc(cn1)-c1ncnc3c1OC2=C3

Result string:
1. < 100 nM
2. 100 to 1000 nM

----------
# Test Target: mTOR (Homo sapiens)
# Construct: purchased Invitrogen PV4754
# Sequence (P42345 1360-2549 limits assumed): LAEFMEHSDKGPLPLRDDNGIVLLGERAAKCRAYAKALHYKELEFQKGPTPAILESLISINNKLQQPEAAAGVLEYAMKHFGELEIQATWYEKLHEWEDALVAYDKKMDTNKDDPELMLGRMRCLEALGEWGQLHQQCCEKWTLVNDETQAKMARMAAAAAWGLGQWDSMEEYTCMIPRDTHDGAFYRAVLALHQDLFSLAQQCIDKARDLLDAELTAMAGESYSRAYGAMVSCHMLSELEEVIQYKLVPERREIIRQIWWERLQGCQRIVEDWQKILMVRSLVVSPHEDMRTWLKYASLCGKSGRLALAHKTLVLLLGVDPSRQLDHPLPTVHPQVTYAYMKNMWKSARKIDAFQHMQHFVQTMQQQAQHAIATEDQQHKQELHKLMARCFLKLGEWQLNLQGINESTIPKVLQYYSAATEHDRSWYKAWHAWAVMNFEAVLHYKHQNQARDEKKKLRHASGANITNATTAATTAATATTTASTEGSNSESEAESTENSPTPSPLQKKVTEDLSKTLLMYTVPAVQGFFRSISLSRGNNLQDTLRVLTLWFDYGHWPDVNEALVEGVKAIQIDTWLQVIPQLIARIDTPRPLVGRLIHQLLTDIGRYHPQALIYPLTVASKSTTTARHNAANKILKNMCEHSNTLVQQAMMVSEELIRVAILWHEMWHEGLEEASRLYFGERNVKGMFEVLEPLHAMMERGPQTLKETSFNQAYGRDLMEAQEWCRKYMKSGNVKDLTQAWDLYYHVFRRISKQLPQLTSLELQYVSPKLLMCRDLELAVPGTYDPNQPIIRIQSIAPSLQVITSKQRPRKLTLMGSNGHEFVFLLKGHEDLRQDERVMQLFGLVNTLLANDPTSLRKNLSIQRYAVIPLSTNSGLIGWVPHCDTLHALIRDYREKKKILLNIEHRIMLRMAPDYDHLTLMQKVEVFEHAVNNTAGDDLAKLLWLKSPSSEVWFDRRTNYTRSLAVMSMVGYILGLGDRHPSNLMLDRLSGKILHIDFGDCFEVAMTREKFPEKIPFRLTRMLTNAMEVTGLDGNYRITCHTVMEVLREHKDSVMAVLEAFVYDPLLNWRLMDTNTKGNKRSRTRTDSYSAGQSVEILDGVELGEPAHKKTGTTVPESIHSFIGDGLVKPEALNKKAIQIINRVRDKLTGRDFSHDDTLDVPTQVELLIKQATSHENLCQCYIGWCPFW
# Method Summary: mTOR assay (LanthaScreen kinase activity assay)
# Format: biochemical
# Measurement Parameters: read-out: mTOR activity, IC50 (semi-quantitative class)
Measurement Label: IC50

Look over these answered cases.
>>> print(df.to_string())
                               smiles_entry  obs_value
0  COc1ncc2cc1NS(=O)(=O)c1cccc(c1)C(=O)NCc1cncc(c1)-c1cnn3ccc-2nc13   < 0.1 µM
1  COc1ncc2cc1NS(=O)(=O)c1cccc(c1)C(=O)NCCCNc1ncnc3c1SC2=C3     > 1 µM

Would you mind listing IC50 for each of the following molecules?
1. COc1ncc2cc1N(C)S(=O)(=O)c1cccc(c1)C(=O)NCc1cncc(c1)-c1ncnc3c1SC2=C3
2. O=C1NCc2cncc(c2)-c2ccnc3ccc(cc23)-c2cncc(c2)NS(=O)(=O)c2cccc1c2
3. O=C1NCc2cc(ccn2)-c2ncnc3c2SC(=C3)c2cncc(c2)NS(=O)(=O)c2cccc1c2
4. COc1ncc2cc1NS(=O)(=O)c1cccc(c1)C(=O)NC[C@@H]1CN(CCO1)c1ncnc3c1SC2=C3
5. COc1ncc2cc1NS(=O)(=O)c1cccc(c1)C(=O)NCc1cccc(c1)-c1ccnc3ccc-2cc13
6. COc1ncc2cc1NS(=O)(=O)c1ccc(F)c(c1)C(=O)NCC1=CC=C(S1)c1ncnc3c1SC2=C3
7. COc1ncc2cc1NS(=O)(=O)c1cccc(c1)C(=O)NCCn1cc(cn1)-c1ncnc3c1OC2=C3

Result string:
1. > 1 µM
2. 0.1 to 1 µM
3. > 1 µM
4. > 1 µM
5. 0.1 to 1 µM
6. > 1 µM
7. > 1 µM

Would you mind listing IC50 for each of the following molecules?
1. COc1ncc2cc1NS(=O)(=O)c1cccc(c1)C(=O)NC[C@@H]1CCCN(C1)c1ncnc3c1SC2=C3
2. COc1ncc2cc1NS(=O)(=O)c1cccc(c1)C(=O)NCc1cncc(c1)-c1nc(C(C)C)nc3c1SC2=C3
3. COc1ncc2cc1NS(=O)(=O)c1cccc(c1)C(=O)NCC1=CC=C(S1)c1ncnc3c1SC2=C3

Result string:
["> 1 µM", "> 1 µM", "> 1 µM"]

Would you mind listing IC50 for each of the following molecules?
1. COc1ncc2cc1NS(=O)(=O)c1cc(c(F)cc1F)C(=O)NCc1cccc(c1)-c1ccnc3ccc-2cc13
2. COc1ncc2cc1NS(=O)(=O)c1cccc(c1)C(=O)NCc1cc(ccn1)-c1ncnc3c1SC2=C3
3. COc1ncc2cc1NS(=O)(=O)c1cccc(c1)C(=O)NCC1CCN(CC1)c1ccnc3ccc-2cc13

Result string:
["0.1 to 1 µM", "> 1 µM", "< 0.1 µM"]
